# ASSAY COMMENT: In vivo clearance in rat was determined
# Assay type: ADME, organism-based
MEASURE: clearance

[[record]]
molecular_string = "COc1ccc(N2CCN(c3ccc(Cl)c(Cl)c3)C2=O)cc1OCCN1CCCCC1"
measure = "clearance"
result = "45 mL/min/kg"


For record COc1ccc(N2CCN(c3cccc(F)c3)C2=O)cc1OCCN1CCCCC1 the listed clearance is > 120 mL/min/kg

Recorded result, COc1ccc(N2CCN(c3cccc(F)c3)C2=O)cc1OCCN1CCOCC1 , clearance: > 120 mL/min/kg

====

# pKi per entry for 5-hydroxytryptamine receptor 2C (Homo sapiens, UniProt P28335)
pKi here: minus log base 10 of the concentration, concentration in moles per litre.

[[record]]
molecular_string = "COc1ccc(N2CCN(c3cc(F)cc(F)c3)C2=O)cc1OCCN1CCCCC1"
measure = "pKi"
numeric_result = 9.00

[[record]]
molecular_string = "COc1ccc(-n2ccn(-c3cc(F)cc(F)c3)c2=O)cc1OCCN1CCCCC1"
measure = "pKi"
numeric_result = 8.10

[[record]]
molecular_string = "COc1ccc(N2CCN(c3ccc(Cl)c(Cl)c3)C2=O)cc1OCCN(C)C"
measure = "pKi"
numeric_result = 8.90

[[record]]
molecular_string = "COc1ccc(N2CCN(c3ccc(C)c(C(F)(F)F)c3)C2=O)cc1OCCN1CCCCC1"
measure = "pKi"
numeric_result = 8.70

[[record]]
molecular_string = "COc1ccc(N2CCN(c3ccc(Cl)c(Cl)c3)C2=O)cc1OCCN1CCCCC1"
measure = "pKi"
numeric_result = 9.10

[[record]]
molecular_string = "O=C1N(c2ccc(OCc3ccccn3)nc2)CCN1c1ccc(Cl)c(Cl)c1"
measure = "pKi"
numeric_result = 6.40

[[record]]
molecular_string = "COc1ccc(N2CC(=O)N(c3cccc(F)c3)C2=O)cc1OCCN1CCCCC1"
measure = "pKi"
numeric_result = 7.30


Log: 5-hydroxytryptamine receptor 2C (Homo sapiens, UniProt P28335), molecule COc1ccc(N2CCN(c3cccc(F)c3)C2=O)cc1OCCN1CCCCC1 , pKi = 8.80

====

Measured Reversal values are reported for all entries that follow.
# Test system: Rattus norvegicus
# ASSAY COMMENT: Percentage reversal at 10 mg/kg po of mCPP (7 mg/kg i.p.) induced hypolocomotion
# Format: functional
Form entry: value (%) — number only.

[[record]]
molecular_string = "COc1ccc(N2CCN(c3cccc(F)c3)C2=O)cc1OCCN1CCCCC1"
scale_unit = "%"
numeric_result = 7

[[record]]
molecular_string = "COc1ccc(N2CCN(c3ccc(Cl)c(Cl)c3)C2=O)cc1OCCN1CCOCC1"
scale_unit = "%"
numeric_result = 7

[[record]]
molecular_string = "COc1ccc(N2CCN(c3ccc(Cl)c(Cl)c3)C2=O)cc1OCCN1CCCCC1"
scale_unit = "%"
numeric_result = 75

[[record]]
molecular_string = "COc1cc2c(cc1OCCN1CCCCC1)N(C(=O)/C=C/c1ccccc1Cl)CC2"
scale_unit = "%"
numeric_result = 71

[[record]]
molecular_string = "COc1ccc(N2CCN(c3cccc(F)c3)C2=O)cc1OCCN(C)C"
scale_unit = "%"
numeric_result = 40


Measured Reversal of COc1ccc(N2CCN(c3cc(F)cc(F)c3)C2=O)cc1OCCN1CCCCC1 : 40

Summary for this compound, COc1ccc(N2CCN(c3cccc(F)c3)C2=O)cc1OCCN1CCOCC1 : Reversal is 10

====

Ki: recorded values
# SYSTEM: 5-hydroxytryptamine receptor 2B (Homo sapiens)
# Sequence (P41595 whole entry): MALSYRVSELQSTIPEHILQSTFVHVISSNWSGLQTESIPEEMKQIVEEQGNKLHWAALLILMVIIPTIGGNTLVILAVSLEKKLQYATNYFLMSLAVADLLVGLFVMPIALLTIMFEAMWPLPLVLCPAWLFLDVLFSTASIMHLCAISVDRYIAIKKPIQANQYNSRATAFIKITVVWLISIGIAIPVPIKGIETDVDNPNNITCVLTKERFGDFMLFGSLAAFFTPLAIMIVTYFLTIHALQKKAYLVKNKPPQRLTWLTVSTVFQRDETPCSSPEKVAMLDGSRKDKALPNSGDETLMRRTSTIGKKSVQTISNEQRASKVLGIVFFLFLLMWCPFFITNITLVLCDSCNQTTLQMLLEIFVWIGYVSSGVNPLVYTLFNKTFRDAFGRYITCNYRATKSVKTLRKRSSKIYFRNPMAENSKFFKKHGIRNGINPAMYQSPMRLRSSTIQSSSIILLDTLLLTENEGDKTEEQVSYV
Report as a plain number; the unit nM is understood.

[[record]]
molecular_string = "COc1ccc(N2CCN(c3cccc(F)c3)C2=O)cc1OCCO"
measure = "Ki"
numeric_result = 1260

[[record]]
molecular_string = "COc1ccc(N2CCN(c3ccc(C)c(C(F)(F)F)c3)C2=O)cc1OCCN1CCCCC1"
measure = "Ki"
numeric_result = 79.4

[[record]]
molecular_string = "COc1ccc(N2CCN(c3cccc(F)c3)C2=O)cc1OCCN1CCOCC1"
measure = "Ki"
numeric_result = 794

[[record]]
molecular_string = "COc1ccc(N2CCN(c3cccc(Cl)c3Cl)C2=O)cc1OCCN1CCCCC1"
measure = "Ki"
numeric_result = 1260


Could you now consider this next molecule?
Note to self: Ki recorded for COc1ccc(N2CCN(c3cccc(F)c3)C2=O)cc1OCCN1CCCCC1 was 501

====

# SYSTEM: 5-hydroxytryptamine receptor 2A (Homo sapiens, UniProt P28223)
# Sequence (P28223 whole entry): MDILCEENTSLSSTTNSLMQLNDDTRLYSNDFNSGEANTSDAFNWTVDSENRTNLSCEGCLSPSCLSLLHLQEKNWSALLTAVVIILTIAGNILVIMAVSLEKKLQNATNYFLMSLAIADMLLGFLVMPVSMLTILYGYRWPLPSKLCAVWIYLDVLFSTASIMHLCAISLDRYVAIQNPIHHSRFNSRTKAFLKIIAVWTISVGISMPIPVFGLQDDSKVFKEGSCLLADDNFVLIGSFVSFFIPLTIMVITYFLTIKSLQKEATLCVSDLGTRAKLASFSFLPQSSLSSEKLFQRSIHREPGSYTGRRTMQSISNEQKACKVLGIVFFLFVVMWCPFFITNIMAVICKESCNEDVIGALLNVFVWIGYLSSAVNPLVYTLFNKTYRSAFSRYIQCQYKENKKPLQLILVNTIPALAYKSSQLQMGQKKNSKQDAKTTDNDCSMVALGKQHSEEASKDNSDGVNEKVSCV
# ASSAY COMMENT: Binding affinity for human 5-hydroxytryptamine 2A receptor expressed in HEK 293 cells using [3H]ketanserin
# Format: cell-based, HEK293
Listed below: pKi values for each entry.
Schema: pKi number; meaning minus log10 of the concentration expressed in molar units.

Would you please look over these solved cases?
[[record]]
molecular_string = "COc1ccc(N2CCN(c3ccc(C)c(C(F)(F)F)c3)C2=O)cc1OCCN1CCOCC1"
numeric_result = 5.50

[[record]]
molecular_string = "COc1ccc(N2CCN(c3cccc(F)c3)C2=O)cc1OCCN1CCCCC1"
numeric_result = 5.70

[[record]]
molecular_string = "COc1ccc(N2CCN(c3ccc(Cl)c(Cl)c3)C2=O)cc1OCCN(C)C"
numeric_result = 6.30

[[record]]
molecular_string = "O=C1N(c2ccc(OCCN3CCCCC3)nc2)CCN1c1ccc(Cl)c(Cl)c1"
numeric_result = 6.00

[[record]]
molecular_string = "COc1ccc(N2CCN(c3cccc(Cl)c3Cl)C2=O)cc1OCCN1CCCCC1"
numeric_result = 5.80


Quick note, pKi for COc1ccc(N2CCN(c3ccccc3)C2=O)cc1OCCN1CCCCC1 landed at 5.60

What the record says about COc1ccc(N2CCN(c3ccc(C)c(C(F)(F)F)c3)C2=O)cc1OCCN1CCCCC1 : pKi is 6.40

====

Assay read-out Ki; system under study: 5-hydroxytryptamine receptor 2B (Homo sapiens).

Examples with answers:
[[record]]
molecular_string = "COc1ccc(N2CC(=O)N(c3cccc(F)c3)C2=O)cc1OCCN1CCCCC1"
measure = "Ki"
result = "> 6.31 µM"

[[record]]
molecular_string = "COc1ccc(N2CCN(c3cc(F)cc(F)c3)C2=O)cc1OCCN1CCCCC1"
measure = "Ki"
result = "> 5.01 µM"

[[record]]
molecular_string = "COc1ccc(-n2ccn(-c3cc(F)cc(F)c3)c2=O)cc1OCCN1CCCCC1"
measure = "Ki"
result = "> 7.94 µM"


Alright, here's another compound for you.
Looking up O=C1N(c2ccc(OCc3ccccn3)nc2)CCN1c1ccc(Cl)c(Cl)c1 , I found its Ki recorded as > 6.31 µM
